Reference source: patent US11952365B2

# Tested on: human beta-coronavirus OC43
# protocol: microbe, parasite or virus in culture
# Type: cell-based
# assaySetup: Betacoronavirus 1, OC43, HeLa, 144 h, OC43 in HeLa cells, 6 days at 33° C., class symbols; read-out: EC50
EC50: recorded values

Answered cases to consult:
[
  {
    "molecule": "COc1cccc2[nH]c(C(=O)N3C[C@@H]4CCC[C@@H]4[C@H]3C(=O)N[C@@H](C[C@@H]3CCNC3=O)C(=O)C(=O)NCC(F)(F)F)cc12 [Compound 114]",
    "EC50": "1 to 10 µM"
  },
  {
    "molecule": "COc1cccc2[nH]c(C(=O)N3C[C@]4(C[C@H]3C(=O)NC(C[C@@H]3CCCNC3=O)C(=O)C(N)=O)CC4(F)F)cc12 (stereo partly drawn) [Compound 46]",
    "EC50": "10 to 100 µM"
  },
  {
    "molecule": "COc1cc(Cl)cc2[nH]c(C(=O)N3C[C@@H]4CCC[C@@H]4[C@H]3C(=O)N[C@@H](C[C@@H]3CCNC3=O)C(=O)CO)cc12 [Compound 88]",
    "EC50": "< 0.1 µM"
  },
  {
    "molecule": "CC(C)NC(=O)C(=O)C(C[C@@H]1CCCNC1=O)NC(=O)[C@@H]1[C@H]2CCC[C@H]2CN1C(=O)c1cc2ccccc2[nH]1 (stereo partly drawn) [Compound 18]",
    "EC50": "0.1 to 1 µM"
  },
  {
    "molecule": "COc1ccc(Cl)c2cc(C(=O)N3C[C@@H]4CCC[C@@H]4[C@H]3C(=O)N[C@@H](C[C@@H]3CCNC3=O)C(=O)CO)[nH]c12 [Compound 176]",
    "EC50": "0.1 to 1 µM"
  }
]

Now take the following molecule into account.
Query string: Look up EC50 for this molecule: CS(=O)(=O)Oc1cccc2[nH]c(C(=O)N3C[C@@H]4CCC[C@@H]4[C@H]3C(=O)N[C@@H](C[C@@H]3CCNC3=O)C(=O)CO)cc12 [Compound 155]
Result string: 1 to 10 µM

====

# studySystem: human cathepsin L (Homo sapiens, UniProt P07711)
# Construct: purchased R&D Systems
# Sequence (P07711 114-333): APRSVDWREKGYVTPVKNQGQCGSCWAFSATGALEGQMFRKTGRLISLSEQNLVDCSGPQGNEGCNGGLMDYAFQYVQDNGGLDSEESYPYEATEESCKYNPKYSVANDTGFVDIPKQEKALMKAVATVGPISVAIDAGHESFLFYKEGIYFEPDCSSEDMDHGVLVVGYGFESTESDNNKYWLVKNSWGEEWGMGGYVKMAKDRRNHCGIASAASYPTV
# protocol: cathepsin L assay
# Type: biochemical
# assaySetup: 10 pM human cathepsin L, Z-FR-AMC 2 μM, class symbols
measuredEndpoint: IC50

[
  {
    "molecule": "O=C(NCCOCC1CCCC1)C(=O)[C@H](C[C@@H]1CCNC1=O)NC(=O)[C@@H]1[C@H]2CCC[C@H]2CN1C(=O)c1cc2c(Cl)cc(Cl)cc2[nH]1 [Compound 174]",
    "IC50": "1000 to 10000 nM"
  },
  {
    "molecule": "COc1cc(Cl)cc2[nH]c(C(=O)N3C[C@@H]4CCC[C@@H]4[C@H]3C(=O)N[C@@H](C[C@@H]3CCNC3=O)C(=O)CO)cc12 [Compound 88]",
    "IC50": "≥ 10000 nM"
  }
]

Now take the following molecule into account.
Query string: Look up IC50 for this molecule: O=C(NCc1ccccc1)C(=O)C(C[C@@H]1CCNC1=O)NC(=O)[C@@H]1C[C@@H](C(F)(F)F)CN1C(=O)c1cc2ccccc2[nH]1 (stereo partly drawn) [Compound 19]
Result string: 100 to 1000 nM
